biological target: Lck (Homo sapiens, UniProt P06239); construct: purchased Upstate (Charlottesville, Va.); assay: Broad selectivity panel, 32P incorporation; assay type: biochemical; conditions: 1 μM compound, 40 μM ATP; read-out: Percent inhibition Lck
Sequence (P06239 whole entry, species assumed): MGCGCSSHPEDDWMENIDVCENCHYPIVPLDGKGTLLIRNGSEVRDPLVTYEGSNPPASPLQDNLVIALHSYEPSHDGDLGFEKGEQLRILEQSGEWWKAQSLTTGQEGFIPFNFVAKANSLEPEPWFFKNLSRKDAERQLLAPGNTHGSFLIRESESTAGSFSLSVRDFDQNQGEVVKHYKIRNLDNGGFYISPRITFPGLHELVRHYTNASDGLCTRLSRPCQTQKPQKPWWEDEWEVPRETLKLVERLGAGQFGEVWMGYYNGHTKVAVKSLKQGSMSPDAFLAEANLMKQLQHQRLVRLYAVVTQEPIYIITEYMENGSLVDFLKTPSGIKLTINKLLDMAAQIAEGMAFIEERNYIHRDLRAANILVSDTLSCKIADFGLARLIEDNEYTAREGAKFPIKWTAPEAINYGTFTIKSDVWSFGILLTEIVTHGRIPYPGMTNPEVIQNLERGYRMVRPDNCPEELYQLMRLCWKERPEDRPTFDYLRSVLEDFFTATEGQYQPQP
Returns yes if the recorded inhibition at 1 µM is greater than or equal to 30%, and no otherwise.

A selection of reference data follows.
1. CS(=O)(=O)N1CCC(Nc2nccc(-c3c(-c4ccc(F)cc4)nc4occn34)n2)CC1 no
2. Fc1ccc(-c2nc3occn3c2-c2ccnc(N[C@@H]3CN4CCC3CC4)n2)cc1 no
3. CC(=O)N1CCC(Nc2nccc(-c3c(-c4ccc(F)cc4)nc4occn34)n2)CC1 yes
4. Fc1ccc(-c2nc3occn3c2-c2ccnc(N[C@H]3CN4CCC3CC4)n2)cc1 no
5. CN1[C@@H]2CC[C@H]1C[C@@H](Nc1nccc(-c3c(-c4ccc(F)cc4)nc4occn34)n1)C2 yes

Query molecule follows.
Incoming: Could you tell me if the measured inhibition at 1 µM of Fc1ccc(-c2nc3occn3c2-c2ccnc(NC3CCNCC3)n2)cc1 reaches 30% or more?
Outgoing: no

###

biological target: JNK3-His (Homo sapiens, UniProt P53779); construct: His; purchased Upstate (Charlottesville, Va.); test: Broad selectivity panel, 32P incorporation; format: biochemical; conditions: 1 μM compound, 40 μM ATP; read-out: Percent inhibition JNK3-His
Sequence (P53779 whole entry): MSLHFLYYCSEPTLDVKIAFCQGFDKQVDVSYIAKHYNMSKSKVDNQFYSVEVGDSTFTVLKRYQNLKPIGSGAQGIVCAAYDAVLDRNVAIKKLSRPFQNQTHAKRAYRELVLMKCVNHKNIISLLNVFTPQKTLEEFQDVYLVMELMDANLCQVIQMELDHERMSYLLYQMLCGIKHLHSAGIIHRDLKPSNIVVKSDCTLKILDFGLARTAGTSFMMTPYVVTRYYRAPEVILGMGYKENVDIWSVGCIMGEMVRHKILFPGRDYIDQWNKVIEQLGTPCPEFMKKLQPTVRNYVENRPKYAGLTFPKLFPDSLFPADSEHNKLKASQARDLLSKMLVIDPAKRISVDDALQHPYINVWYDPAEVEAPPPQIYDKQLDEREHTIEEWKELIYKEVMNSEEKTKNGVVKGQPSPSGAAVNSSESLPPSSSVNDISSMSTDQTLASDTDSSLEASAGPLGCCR
Please enter 1.0 where inhibition at 1 µM is greater than or equal to 80%, and 0.0 where it is lower.

Here's what some known entries look like.
compound	systemUnderTest	category
Fc1ccc(-c2nc3occn3c2-c2ccnc(NC3CCNCC3)n2)cc1 [CCLXXX]	JNK3-His (Homo sapiens, UniProt P53779)	1.0
CS(=O)(=O)N1CCC(Nc2nccc(-c3c(-c4ccc(F)cc4)nc4occn34)n2)CC1 [CCLXXIX]	JNK3-His (Homo sapiens, UniProt P53779)	1.0
Fc1ccc(-c2nc3occn3c2-c2ccnc(N[C@H]3CN4CCC3CC4)n2)cc1 [LXXXVII]	JNK3-His (Homo sapiens, UniProt P53779)	0.0

Incoming: Does the compound Fc1ccc(-c2nc3occn3c2-c2ccnc(N[C@@H]3CN4CCC3CC4)n2)cc1 [LXXI] have recorded inhibition at 1 µM that is 80% or more?
Outgoing: 0.0

Incoming: Exam item: decide whether the reported inhibition at 1 µM for CN1[C@@H]2CC[C@H]1C[C@@H](Nc1nccc(-c3c(-c4ccc(F)cc4)nc4occn34)n1)C2 [CCLXXXI] is at least 80%.
Outgoing: 0.0

Incoming: For this compound, is measured inhibition at 1 µM 80% or higher? CC(=O)N1CCC(Nc2nccc(-c3c(-c4ccc(F)cc4)nc4occn34)n2)CC1 [CCLXXVIII]
Outgoing: 1.0

Incoming: Assess whether reported inhibition at 1 µM for CN(C)CC(C)(C)CNc1nccc(-c2c(-c3ccc(F)cc3)nc3occn23)n1 [CXIX] sits at 80% or higher.
Outgoing: 0.0

###

biological target: c-RAF (Homo sapiens, UniProt P04049); construct: purchased Upstate (Charlottesville, Va.); assay: Broad selectivity panel, 32P incorporation; type: biochemical; conditions: 1 μM compound, 40 μM ATP; read-out: Percent inhibition c-RAF
Sequence (P04049 whole entry, species assumed): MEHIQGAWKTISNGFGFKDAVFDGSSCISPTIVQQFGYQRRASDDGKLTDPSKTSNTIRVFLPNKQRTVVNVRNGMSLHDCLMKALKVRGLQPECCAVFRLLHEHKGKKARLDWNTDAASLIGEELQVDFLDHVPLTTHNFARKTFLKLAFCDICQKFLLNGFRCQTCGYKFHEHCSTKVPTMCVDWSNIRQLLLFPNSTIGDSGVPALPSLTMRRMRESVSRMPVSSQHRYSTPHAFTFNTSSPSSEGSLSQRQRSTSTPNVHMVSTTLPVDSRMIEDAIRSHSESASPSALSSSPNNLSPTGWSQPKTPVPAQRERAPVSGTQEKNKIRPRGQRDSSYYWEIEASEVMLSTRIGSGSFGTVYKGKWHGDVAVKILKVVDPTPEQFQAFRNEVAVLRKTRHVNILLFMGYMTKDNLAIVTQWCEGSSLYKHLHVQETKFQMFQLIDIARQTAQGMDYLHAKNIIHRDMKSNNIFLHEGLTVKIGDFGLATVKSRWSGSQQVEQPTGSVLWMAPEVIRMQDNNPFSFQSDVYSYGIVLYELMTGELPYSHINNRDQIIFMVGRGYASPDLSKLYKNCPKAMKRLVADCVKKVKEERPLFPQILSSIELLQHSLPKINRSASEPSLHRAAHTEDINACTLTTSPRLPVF
So basically: inhibition at 1 µM at 60% or higher? That is condition met. Lower than 60%? That is condition not met.

Incoming: Item CC(=O)N1CCC(Nc2nccc(-c3c(-c4ccc(F)cc4)nc4occn34)n2)CC1 with inhibition at 1 µM of 60% or above?
Outgoing: condition met

Incoming: # bool: inhibition at 1 µM of Fc1ccc(-c2nc3occn3c2-c2ccnc(NC3CCNCC3)n2)cc1 >= 60%
Outgoing: condition met

Incoming: Exam item: decide whether the reported inhibition at 1 µM for CN(C)CC(C)(C)CNc1nccc(-c2c(-c3ccc(F)cc3)nc3occn23)n1 is at least 60%.
Outgoing: condition not met

Incoming: Determine whether measured inhibition at 1 µM meets or exceeds 60% for Fc1ccc(-c2nc3occn3c2-c2ccnc(N[C@@H]3CN4CCC3CC4)n2)cc1
Outgoing: condition not met

Incoming: Does CN1[C@@H]2CC[C@H]1C[C@@H](Nc1nccc(-c3c(-c4ccc(F)cc4)nc4occn34)n1)C2 have a reported inhibition at 1 µM of at least 60%?
Outgoing: condition not met

Incoming: Hi team, for Fc1ccc(-c2nc3occn3c2-c2ccnc(N[C@H]3CN4CCC3CC4)n2)cc1 , is the recorded inhibition at 1 µM at or above 60%?
Outgoing: condition not met

Incoming: Hello, I need to know if CS(=O)(=O)N1CCC(Nc2nccc(-c3c(-c4ccc(F)cc4)nc4occn34)n2)CC1 has measured inhibition at 1 µM not below 60%. Thanks!
Outgoing: condition met
